Values compiled from the DeepSol protein solubility set.

- protocol notes: soluble on expression in E. coli; label from the status in PepcDB or PDB records

macromolecule sequence	soluble on expression in E. coli
MSLSELLDLSFLSEEEKDLILSVLQRDEEVRKADEKRIRRLKNELLEIKRKGAKRGSQHYSDRTCARCQESLGRLSPKTNTCRGCNHLVCRDCRIQESNGTWRCKVCAKEIEMKKATGDWFYDQKVNRFAYRTGSEIIRMSLRHKPAVSKREGHHHHHH	not soluble
MFSGGRKVKWNHFGKKYALRFSDYEMEYADLYDALLKKVHEVRADFEGDLAFIDQYGRQVIVSSDKDVREAIQQSKNKLKLHTTLRDGHVIAAADMAEAARGRPARSQSVPPERSYNMYPQRSPSSMDSAPDTYRHHPQQMTRAMSPPPMSTTTGSTHSPPLRQIGETVKTTYSHSGSYGGLYPGGYKGYPYGGGYSNSILYGMPPHNGMLWRFLANPFPFGNAQTRSFIGPNKYHHFGGYNHMYSSGFGGPVW	not soluble
MKQINDVSFLLDKRLVVLIEHQSTINENLPYRLLEYITRIYEKIVDKEKKYQKNLVKIPKPEFIVLYNGADPYPDYTELKLSDAFMDIEGLKLTGIDKIPLELIVPVYNINQGHNPEILKKCESLYGYSFFISKIREYQTQGLTLEELITPVIEYCIKNNILKDYLEAHASEVINMIFGEYDREMDIAVNRREAREEGREEGFKEGKLIIAKNLLSEGSTPEFVQRITGLTLDEIEEIGL	not soluble
MLKKHLTTQLFQKKKKKKLHLVLDLDHTLLHSVLVSDLSKREKYLLEETDSRQDLWRRNVDGYEFIIKLRPFLHEFLLEANKLFTMHVYTMGSSSYAKQVLKLIDPDKVYFGKRVITREASPFNKSLDLLAADKRRVVIVDDTVHVWPFHKRNLLQITKYVYFKVDGTKWDSYAEAKKDESQSNGSLANVLKFLEDVHKRFEEDLGFKDLRLLIPCRQCCY	soluble
SADDKDVLRDVWFGRIPACFTLSPDETTEREAEPYYLLLPRVSYLTLVTDKVKKHFLKVMKAEDVEEMWFEHEGTPLKWHYPIGVLFDLHASNSALPWNVTVHFKNFPEQDLLHCSTNSVIEAHFMSCIKEADALKHKGQVINDMQKKDHKQLWMGLQNDKFDQFWAMNRKLMEYPTEEGGFRYIPFRIYQTMSDRPFIQTLFRPVSSEGQALTLGDLLKELFPAAIEDEPKKFQVMIHGIEPLLETPIQWLSEHLSHPDNFLHISIIPAPSD	soluble
MSLSDPNTSGSGVVGESSGVRVAIEGCGHGCLHSIYASVERAAALKGWDGVDLLIIGGDFQAVRNSNDMACMSVPNKYKEIGDFHEYYSGQRTAPYLTIFVGGNHEASNHLFELYYGGWVAPNIYYMGAANVLRFGPLRIAGLSGIWKGRDYRKPHFERLPYNDDDIKSIYHVRELDVRKLLQVRTQIDVGLSHDWPRQIEYCGDWQQLFRAKPLFRRDSQNGTLGSTAAEYVLNRLRPAYWFSAHLHVKFAASVQHGPQEVVPNRQYGLDGASLTSMLSETEEASRQTGYSQAEAEPNAHAVSETGTTEEGHHHHHH	soluble

###

- protocol notes: soluble on expression in E. coli; label from the status in PepcDB or PDB records

macromolecule sequence	soluble on expression in E. coli
GMNRLRTSFQQTTGQISGHGKRNVGVLKTAFAAVADEMASDQYGTGAIIEPFEQKFADVLGMDDAVFFPSGTMAQQVALRIWSDETDNRTVAYHPLCHLEIHEQDGLKELHPIETILVGAADRLMTLDEIKALPDIACLLLELPQREIGGVAPAFSELETISRYCRERGIRLHLDGARLFEMLPYYEKTAAEIAGLFDSIYISFYKGLGGIAGAILAGPAAFCQTARIWKRRYGGDLISLYPYIVSADYYYELRKDRMGQYYEQAKQLAEQFNALPGVHTTPEVPVSNMFHLHFDGQAADISPKLEQVQEETGLGFVGYLVDKDGYCSTEISVGDAYGELDQQTRDAGFARLRQAFS	soluble
MGSDKIHHHHHHMKLGLLTAPFAETPLADVAAWASSAGFEALEIACWPKTSGATRRYAGTSHIDAASTSPAQAKEITASLAEKHLTISGLGYYPNPLHPDAAHREAVIGHLKKVIELAANMGVPVVNTFCGGDASKTVDVNWQDALKVWPEIVAFARGHGIKLAFENCPMIFSYDEWPGGHNIAYSPQVWRRILETWGGDIGMNFDPSHLVWQMIDQARFIREFGPYMLHVHAKDLMIDHDGLYERGILSAGIGWQVPRMPGLGDVDWSGFFSGLYRAGYDGSVIIEHEDRRFEGSDEQVKRGFLLARDVLRPYVK	not soluble
MSLTADPPACTVPAAGGASTHKLVNAGAEKMIFKIKSSNNNEYRITPVFGFVDPSGSKDITITRTAGAPKEDKLVVHFAAAPADATDAQAAFAAITPAGTITIPMSATA	soluble
SLSEGYLSGLEYWNDIHWSCASYNEQVAGEKEEETNSVATLSYSSVDETQVRSLYVSCKSSGKFISSVHSRESQHSRSQRVTVLQTNPNPVFESPNLAAVEICRDASRETYLVPSSCKSICKNYNDLQIAGGQVMAINSVTTDFPSESSFEYGPLLKSSEIPLPMEDSISTQPSDFPQKPIQRYSSYWRITSIKEKSSLQMQNPISNAVLNEYLEQKVVELYKQYIMDTVFHDSSPTQILASELIMTSVDQISLQVSREKNLETSKARDIVFSRLLQLMSTEITEISTPSLHISQYSNVNP	not soluble
SLAHVGTWDWDITNETLAWTDETYRIFGVKPQEFKATYEAFLFYIHADDRQAVIDAVNDAINNDSSYSIKHRVIRPSGEIREVLEKGQVLRDENGKASRIIGAVLDIT	not soluble
MGSDKIHHHHHHMTRSVKRVAAIHDLSGFGRASLTAIIPIMSYMGIQVCPMPTAVLSTHTTDFHEYSFVDLTDSMQDFMNHWKKINLEFDAIYTGFLGSPRQVKIISDFVKEFSSDSTLVLIDPVMGDEGELYQTMNSEIVRSMRELIKSADIITPNFTEAAYLLDKDYNLELNEETIKEWILELANMGPDIVIMTSVPENKDKSTISVIAYEKKLNKFWKITSEYIPVSYPGTGDSFASAILGRILKGDNLPQAVGRGMQFITSAIKESYGFDYPTREGILIEKSLEVLNLPFMNGNYKLI	not soluble
